# Tested on: tRNA
# run.description: Aminoacylation assay (tRNA charging)
# Type: biochemical
# experimental.setup: nsAA pAzF

# molecule, kcat
rows = [
    ("pAzFRS.1: pAcFRS variant D158V, I159M, L162D, A167Y, SEQ ID NO: 10 (protein) MDEFEMIKRNTSEIISEEELREVLKKDEKSALIGFEPSGKIHLGHYLQIKKMIDLQNAGFDIIILLADLHAYLNQKGELDEIRKIGDYNKKVFEAMGLKAKYVYGSEFQLDKDYTLNVYRLALKTTLKRARRSMELIAREDENPKVAEVIYPIMQVNVMHYDGVDVYVGGMEQRKIHMLARELLPKKVVCIHNPVLTGLDGEGKMSSSKGNFIAVDDSPEEIRAKIKKAYCPAGVVEGNPIMEIAKYFLEYPLTIKRPEKFGGDLTVNSYEELESLFKNKELHPMRLKNAVAEELIKILEPIRKRL", "0.46 ± 0.18 ×10^−3 s^−1"),
    ("pAzFRS.2: pAcFRS variant E107T, F108Y, Q109M, SEQ ID NO: 13 (protein) MDEFEMIKRNTSEIISEEELREVLKKDEKSALIGFEPSGKIHLGHYLQIKKMIDLQNAGFDIIILLADLHAYLNQKGELDEIRKIGDYNKKVFEAMGLKAKYVYGSTYMLDKDYTLNVYRLALKTTLKRARRSMELIAREDENPKVAEVIYPIMQVNGCHYRGVDVAVGGMEQRKIHMLARELLPKKVVCIHNPVLTGLDGEGKMSSSKGNFIAVDDSPEEIRAKIKKAYCPAGVVEGNPIMEIAKYFLEYPLTIKRPEKFGGDLTVNSYEELESLFKNKELHPMRLKNAVAEELIKILEPIRKRL", "0.73 ± 0.06 ×10^−3 s^−1"),
    ("pAcFRS.2: pAcFRS variant L65V, A167D, SEQ ID NO: 7 (protein) MDEFEMIKRNTSEIISEEELREVLKKDEKSALIGFEPSGKIHLGHYLQIKKMIDLQNAGFDIIIVLADLHAYLNQKGELDEIRKIGDYNKKVFEAMGLKAKYVYGSEFQLDKDYTLNVYRLALKTTLKRARRSMELIAREDENPKVAEVIYPIMQVNGCHYRGVDVDVGGMEQRKIHMLARELLPKKVVCIHNPVLTGLDGEGKMSSSKGNFIAVDDSPEEIRAKIKKAYCPAGVVEGNPIMEIAKYFLEYPLTIKRPEKFGGDLTVNSYEELESLFKNKELHPMRLKNAVAEELIKILEPIRKRL", "0.18 ± 0.02 ×10^−3 s^−1"),
    ("pAcFRS.1: pAcFRS variant A167D, SEQ ID NO: 2 (protein) MDEFEMIKRNTSEIISEEELREVLKKDEKSALIGFEPSGKIHLGHYLQIKKMIDLQNAGFDIIILLADLHAYLNQKGELDEIRKIGDYNKKVFEAMGLKAKYVYGSEFQLDKDYTLNVYRLALKTTLKRARRSMELIAREDENPKVAEVIYPIMQVNGCHYRGVDVDVGGMEQRKIHMLARELLPKKVVCIHNPVLTGLDGEGKMSSSKGNFIAVDDSPEEIRAKIKKAYCPAGVVEGNPIMEIAKYFLEYPLTIKRPEKFGGDLTVNSYEELESLFKNKELHPMRLKNAVAEELIKILEPIRKRL", "0.65 ± 0.20 ×10^−3 s^−1"),
]
